Test system: HepG2
Assay: GSK_TCMDC: Percent inhibition of human HepG2 cell line. Test compounds present at 10uM.
Assay type: functional
OBSERVABLE: Inhibition (%)

molecule=Fc1ccc2[nH]c(-c3cccc(-c4ccc(CN5CCN(c6ccncc6)CC5)cc4)c3)nc2c1.O=C(O)C(F)(F)F observable=Inhibition number=39
molecule=O=C(C=Cc1cccs1)Nc1ccc(-c2nc3ccccc3[nH]2)cc1 observable=Inhibition number=0
molecule="COC(=O)c1ccc(C2OC3(C(=O)c4ccccc4C3=O)C(OC)=C2Cl)cc1C(C)=O (centres undefined)" observable=Inhibition number=0
molecule=Cc1cccc2nc(-c3ccc(-c4ccc(CNCc5cccc(N)c5)cc4)cc3)[nH]c12.O=C(O)C(F)(F)F observable=Inhibition number=12
molecule=Cc1onc(-c2ccccc2)c1-c1nc(NCCC(c2ccccc2)c2ccccc2)no1 observable=Inhibition number=0
molecule=Cc1cc(N(C)CCN(C)C)nc(Nc2ccc(Cl)cc2)n1 observable=Inhibition number=0
molecule=CCN(CC)CCN(Cc1ccc(-c2ccc(C(F)(F)F)cc2)cc1)C(=O)Cn1c(CCc2ccc(F)cc2)nc(=O)c2sccc21.O=C(O)C(O)C(O)C(=O)O observable=Inhibition number=100
molecule=O=C(O)C(F)(F)F.c1cc(OCCN2CCCC2)ccc1CNC1CCN(CC2CCCCC2)CC1 observable=Inhibition number=15
molecule=N=C(N)NCCN(Cc1ccccc1)c1ccccc1 observable=Inhibition number=8
